Taken from PubChem BioAssay AID652030.

testSystem: Acyl-protein thioesterase 1 (Mus musculus) (UniProt P97823)
assayText: inhibitor selectivity across mouse and human LYPLA2, LYPLA1 – cell lysate, gel-based ABPP, FP-Rh fluorescence, mouse brain membrane proteome, selectivity assay for LYPLA2 selective inhibitor project, late-stage follow-up (AID 652030)
conditionParameters: emLYPLA1, at 10 µM, stronger effect = higher value
Measured inhibition by item
propertyLabel: inhibition (%)

molsmiles=Cc1cccc(NC(=O)CN2C(=O)S/C(=C\c3cc(C)n(C)c3C)C2=O)c1 testsystem="Acyl-protein thioesterase 1 (Mus musculus) (UniProt P97823)" propertylabel=inhibition resultunits=% reported=9
molsmiles=COc1ccc(OC)c(-c2cc(C(=O)Nc3c(C)nn(Cc4ccccc4C)c3C)no2)c1 testsystem="Acyl-protein thioesterase 1 (Mus musculus) (UniProt P97823)" propertylabel=inhibition resultunits=% reported=6
molsmiles=Cc1ccccc1NC(=O)CN1C(=O)S/C(=C\c2cccn2-c2cccc(C(=O)O)c2)C1=O testsystem="Acyl-protein thioesterase 1 (Mus musculus) (UniProt P97823)" propertylabel=inhibition resultunits=% reported=0
molsmiles=COc1ccccc1-c1nnc(C2CCN(S(=O)(=O)c3ccc([N+](=O)[O-])cc3)CC2)o1 testsystem="Acyl-protein thioesterase 1 (Mus musculus) (UniProt P97823)" propertylabel=inhibition resultunits=% reported=16
molsmiles=O=[N+]([O-])c1ccc(Oc2cccc(Br)c2)c2ccncc12 testsystem="Acyl-protein thioesterase 1 (Mus musculus) (UniProt P97823)" propertylabel=inhibition resultunits=% reported=13
molsmiles=CS(=O)(=O)Nc1ccc(N2CCN(c3ccc(C(F)(F)F)cn3)CC2)nc1 testsystem="Acyl-protein thioesterase 1 (Mus musculus) (UniProt P97823)" propertylabel=inhibition resultunits=% reported=0
molsmiles=Cc1cccc(N2CCN(C(=O)Cc3ccc(-n4c(=O)[nH]c5ccsc5c4=O)cc3)CC2)c1C testsystem="Acyl-protein thioesterase 1 (Mus musculus) (UniProt P97823)" propertylabel=inhibition resultunits=% reported=14
molsmiles=CCCCCCCCCC(=O)Nn1cnc2ccccc2c1=O testsystem="Acyl-protein thioesterase 1 (Mus musculus) (UniProt P97823)" propertylabel=inhibition resultunits=% reported=28
molsmiles=Cc1ccc(NC(=O)Cn2c([N+](=O)[O-])cnc2C)cc1Cl testsystem="Acyl-protein thioesterase 1 (Mus musculus) (UniProt P97823)" propertylabel=inhibition resultunits=% reported=0
molsmiles=O=C(NCC1CCN(c2ccc(S(=O)(=O)N3CCOCC3)cc2)CC1)c1ccc(Cl)cc1 testsystem="Acyl-protein thioesterase 1 (Mus musculus) (UniProt P97823)" propertylabel=inhibition resultunits=% reported=3
